Measurement protocol: Pharmacokinetic study in ICR mice
Type: in vivo
Test context: mouse, plasma, iv, 10 mg/kg

| Molecule | Vd |
| --- | --- |
| O=c1nc(N2CCN(CC3CCCCC3)CC2)sc2c([N+](=O)[O-])cc(C(F)(F)F)cc12 [PBTZ169] | 1.15 L/kg |
